This section presents compounds with their documented inhibition at 1000 µM values.
Target: Amine oxidase [flavin-containing] A (Homo sapiens, UniProt P21397)
Sequence (P21397 whole entry): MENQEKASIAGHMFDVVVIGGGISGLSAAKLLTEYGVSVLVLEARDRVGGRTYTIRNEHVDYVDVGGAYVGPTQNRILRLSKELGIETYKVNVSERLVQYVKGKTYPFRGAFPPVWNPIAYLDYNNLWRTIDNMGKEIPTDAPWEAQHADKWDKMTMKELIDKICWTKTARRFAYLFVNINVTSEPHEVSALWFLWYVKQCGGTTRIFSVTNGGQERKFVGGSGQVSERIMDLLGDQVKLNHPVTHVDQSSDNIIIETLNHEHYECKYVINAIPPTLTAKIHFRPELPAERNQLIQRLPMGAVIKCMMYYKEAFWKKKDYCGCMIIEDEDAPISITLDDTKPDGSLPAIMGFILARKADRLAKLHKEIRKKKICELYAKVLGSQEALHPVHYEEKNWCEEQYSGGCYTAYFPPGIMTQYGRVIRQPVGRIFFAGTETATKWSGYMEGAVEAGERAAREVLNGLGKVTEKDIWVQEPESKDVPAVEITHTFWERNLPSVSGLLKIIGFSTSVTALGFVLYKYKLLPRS
Test: Inhibition of human recombinant MAO-A at 1 mM using tyramine as substrate preincubated with enzyme for 30 mins followed by incubation with substrate for 30 mins by Amplex Red reagent based fluorometric method relative to control
Details: 0.5 h, time 60 min
quantity.kind: inhibition at 1000 µM (%)

[
  {
    "compound": "Cc1ccc(Nc2nnc(SCC(=O)N(Cc3cccc([N+](=O)[O-])c3)c3ccc(F)cc3)s2)cc1",
    "quantity.kind": "inhibition at 1000 µM",
    "result.number": 87.6
  },
  {
    "compound": "CC(C)CNc1nnc(SCC(=O)N(Cc2cccc([N+](=O)[O-])c2)c2ccc(F)cc2)s1",
    "quantity.kind": "inhibition at 1000 µM",
    "result.number": 93.5
  },
  {
    "compound": "C#CCN(C)CCCOc1ccc(Cl)cc1Cl",
    "quantity.kind": "inhibition at 1000 µM",
    "result.number": 96.4
  },
  {
    "compound": "CCCCNc1nnc(SCC(=O)N(Cc2cccc([N+](=O)[O-])c2)c2ccc(F)cc2)s1",
    "quantity.kind": "inhibition at 1000 µM",
    "result.number": 90.5
  },
  {
    "compound": "CCNc1nnc(SCC(=O)N(Cc2cccc([N+](=O)[O-])c2)c2ccc(F)cc2)s1",
    "quantity.kind": "inhibition at 1000 µM",
    "result.number": 93.6
  },
  {
    "compound": "O=C(NCCN1CCOCC1)c1ccc(Cl)cc1 [MOCLOBEMIDE]",
    "quantity.kind": "inhibition at 1000 µM",
    "result.number": 95.3
  },
  {
    "compound": "COCCNc1nnc(SCC(=O)N(Cc2cccc([N+](=O)[O-])c2)c2ccc(F)cc2)s1",
    "quantity.kind": "inhibition at 1000 µM",
    "result.number": 94.1
  },
  {
    "compound": "O=C(CSc1nnc(Nc2ccccc2)s1)N(Cc1cccc([N+](=O)[O-])c1)c1ccc(F)cc1",
    "quantity.kind": "inhibition at 1000 µM",
    "result.number": 89.5
  },
  {
    "compound": "C=CCNc1nnc(SCC(=O)N(Cc2cccc([N+](=O)[O-])c2)c2ccc(F)cc2)s1",
    "quantity.kind": "inhibition at 1000 µM",
    "result.number": 92
  },
  {
    "compound": "CCCNc1nnc(SCC(=O)N(Cc2cccc([N+](=O)[O-])c2)c2ccc(F)cc2)s1",
    "quantity.kind": "inhibition at 1000 µM",
    "result.number": 95
  },
  {
    "compound": "CC(C)Nc1nnc(SCC(=O)N(Cc2cccc([N+](=O)[O-])c2)c2ccc(F)cc2)s1",
    "quantity.kind": "inhibition at 1000 µM",
    "result.number": 92.5
  }
]

---

Biological target: Amine oxidase [flavin-containing] B (Homo sapiens, UniProt P27338)
Sequence (P27338 whole entry): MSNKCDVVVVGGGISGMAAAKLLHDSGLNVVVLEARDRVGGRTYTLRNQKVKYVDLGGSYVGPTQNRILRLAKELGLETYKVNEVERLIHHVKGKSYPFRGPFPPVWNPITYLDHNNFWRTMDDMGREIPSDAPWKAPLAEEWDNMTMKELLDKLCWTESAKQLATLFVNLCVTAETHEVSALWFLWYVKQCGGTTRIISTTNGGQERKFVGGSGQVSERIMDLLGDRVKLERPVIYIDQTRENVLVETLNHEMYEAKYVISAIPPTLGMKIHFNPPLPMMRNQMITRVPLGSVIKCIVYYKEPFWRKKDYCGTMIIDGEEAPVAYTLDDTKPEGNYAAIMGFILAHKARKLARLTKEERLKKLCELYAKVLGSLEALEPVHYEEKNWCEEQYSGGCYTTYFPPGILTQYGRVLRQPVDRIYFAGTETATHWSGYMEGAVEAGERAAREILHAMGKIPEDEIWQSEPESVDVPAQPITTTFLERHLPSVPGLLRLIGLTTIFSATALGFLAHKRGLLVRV
Experiment: Inhibition of human recombinant MAO-B at 100 uM using tyramine as substrate preincubated with enzyme for 30 mins followed by incubation with substrate for 30 mins by Amplex Red reagent based fluorometric method relative to control
Settings: 0.5 h, read-out: INH
Entries and their inhibition at 100 µM
quantity.kind: inhibition at 100 µM (%)

[
  {
    "smiles": "CCCNc1nnc(SCC(=O)N(Cc2cccc([N+](=O)[O-])c2)c2ccc(F)cc2)s1",
    "units.symbol": "%",
    "result.number": 26.8
  },
  {
    "smiles": "COCCNc1nnc(SCC(=O)N(Cc2cccc([N+](=O)[O-])c2)c2ccc(F)cc2)s1",
    "units.symbol": "%",
    "result.number": 25.7
  },
  {
    "smiles": "CC(C)Nc1nnc(SCC(=O)N(Cc2cccc([N+](=O)[O-])c2)c2ccc(F)cc2)s1",
    "units.symbol": "%",
    "result.number": 28.5
  },
  {
    "smiles": "C=CCNc1nnc(SCC(=O)N(Cc2cccc([N+](=O)[O-])c2)c2ccc(F)cc2)s1",
    "units.symbol": "%",
    "result.number": 29.2
  },
  {
    "smiles": "CC(C)CNc1nnc(SCC(=O)N(Cc2cccc([N+](=O)[O-])c2)c2ccc(F)cc2)s1",
    "units.symbol": "%",
    "result.number": 24.2
  },
  {
    "smiles": "O=C(CSc1nnc(Nc2ccccc2)s1)N(Cc1cccc([N+](=O)[O-])c1)c1ccc(F)cc1",
    "units.symbol": "%",
    "result.number": 20.7
  },
  {
    "smiles": "CCNc1nnc(SCC(=O)N(Cc2cccc([N+](=O)[O-])c2)c2ccc(F)cc2)s1",
    "units.symbol": "%",
    "result.number": 22.4
  },
  {
    "smiles": "CCCCNc1nnc(SCC(=O)N(Cc2cccc([N+](=O)[O-])c2)c2ccc(F)cc2)s1",
    "units.symbol": "%",
    "result.number": 34.3
  },
  {
    "smiles": "Cc1ccc(Nc2nnc(SCC(=O)N(Cc3cccc([N+](=O)[O-])c3)c3ccc(F)cc3)s2)cc1",
    "units.symbol": "%",
    "result.number": 26.5
  }
]

Data credit: ChEMBL document CHEMBL4699429
